- Experiment Description: in vivo
- Condition: CD1, mouse, po, 10 mg/kg, T1/2
Measured Metric: half-life

half-life for Cc1cccc(-c2nc(Nc3ccc4nn(C)nc4c3)c3ccccc3n2)n1 ?
> 3 h

----------
- Condition: 0.5 h
Measured Metric: metabolic stability in mouse liver microsomes (in words)

metabolic stability in mouse liver microsomes (in words) for c1ccc(-c2nc(Nc3ccncc3)c3ccccc3n2)nc1 [compound 29] ?
comparable

Now try Clc1cccc(-c2nc(Nc3ccncc3)c3ccccc3n2)n1 [compound 25] .
comparable
